Experiment: yeast display, Sf9 membrane polyspecificity reagent, FACS + sequencing; frameworks hold sequencing errors
ENDPOINT: polyreactivity (PSR sort gate)

Example sequences with recorded polyreactivity (PSR sort gate):
1. QDQLVESGGGLVQAGGSLRLSCAASGRISPRYAMGWYRQAPGKERELVAAIDTSDGTTYFADSVKGRFTISRDNAKNTVYLQMNSLKPEDTAVYYCAAEGQLFDLYDYWGQGTQGTVSS: low polyreactivity
2. QVHLVESGVGLGQAGGSLRLSCAASGSIFYSNAMGWYRPAPGKERELVATITWSGGRTYYADSVKGRFTISRDYAKNTFYLQMHSLKPEDTAVYYCAAVSIYWGHGTQVTVSS: low polyreactivity
3. QVQLVESGGGLVQAGGSLRLSCAASGYIFQPYAMGWYRQAPGKERELVAAISWRGGTTYYADSVKGRFTISRDNAKITVYLQMNSLKPEDTAVYDCAKDYYYGLDHYGYWGQGTQVTVSS: low polyreactivity
4. QVQLVESGGGLVQAGGSLRLSCAASGITFVGYAMGWYRQAPGKERELVAVINTSSSTYYADSVKGRFTISRDNAKNTVYLQLNSLKPEATAVYYCGVRGRYYYRRPQISYEYWGQGTQVTVSS: low polyreactivity
5. QVQLVESGGGLVQAGGSLRLSCAASGITFRRYAMGWYRPAPGKERELVAVISVSGGRTHYADSVKGRFTISRDNAKNTVYLQMNSLKPEDTAVYYCAADFLRYPLGYWGQGTQVTVSS: high polyreactivity

Need polyreactivity (PSR sort gate) for each of these sequences.
1. QVQLQESRGGLVQAVRSLRLSCAASGTILYSLGMGWYRQAPGKRREFVASITRGTTTNYAESVKGRFTISRDNAKKTVYPQMNSLKAEDTGVSFCAGPPFGVSSYDYWGQGNQVTVSS
2. QVQLQESGGGLVQAGGSLLSCAASGPISYYREMGWYRQAPGKERELVAGFGVGTITYYADSVKGRFTISRDNAKNTVYLQMNSLKPEVTAVYYCAAHIDGNDSHAYWGQGTQVTVIS
3. QVQLEESGGGLVQAGGSLRLSCAASGSIFGNAMGWYRQAPGKEREFVAAISSSGSSTYYADSVKGRFTISRDNAKNTVYLQMNSLKPEDTAVYYCAKRRRSADPKYDYWGQGTQVTVSS

1: low polyreactivity; 2: low polyreactivity; 3: high polyreactivity

---

Assay: yeast display, Sf9 membrane polyspecificity reagent, FACS + sequencing; frameworks hold sequencing errors
ENDPOINT: polyreactivity (PSR sort gate)

Example sequences with recorded polyreactivity (PSR sort gate):
1) QVQLVESGGGLFQPGGILRLSFAASGSTIIDYAMGWYRQEPWKERELVASITWSGGSTYYADSVKGRFTFSRDNAKNTVYLQINCLKPVDSAVYYCNSDVNVGLEVLIVYEYDYWGQGTQVTVSS: low polyreactivity
2) QVQLVESGGGLVQAGGSLRLSCAASGITFPGNAMGWYRQAPGKERELVAVISFGDGGTYYADSVKGRFTISRDNAKNTVYLQMNSLKPEDTAVYYCATDYQSTSVWGGHFVINPYDYWGQGTQVTVSS: low polyreactivity
3) QVQLVESGGGLVQAGGSLRLSCAASGRIFGSYAMGWYRQAHGKERELVAAIRWSGGSTYYADSVKGRFTISRDNAKNTVYLQMNSLKPEDTAVYYCAKTRTGYCFSYGYWGQGTQVTVSS: high polyreactivity
4) QVQLVESGGGLVQAGGRLRLSCAASGIIFYGYAMGWYRQAPGKERELVAAITSYDGSTYYADSVKGRFTISRDNEKNTVYLQMNILKPEDTAFYYCAADYSTYEGWYWFDYWGQGTQVTVSS: high polyreactivity
5) QVQIVESGGGIVQAGGSLRLSSAASGSTFSFYVMGWYRHAPGKEREWVAAISWSSVGTYYADSVKGRFTISRDNAKNTVYLQMNSLKPDDTAVYYCAAERYRRVAKHGYWGQGTQVTVSS: high polyreactivity

Need polyreactivity (PSR sort gate) for each of these sequences.
1. QVQLVDSGGGLVQAVGSLRLSCAASGSIFRLNAMGWYRQAPGKERDLVGAITWSDSSTYYADSVKGRFTISRDNAKNTVYLQMNSLKPEDTAVYYCAADPQSYKYDYWGQGTQVTVSS
2. QVQLVESGGGLVQAGGSLRLSCAASGRTFALYAMGSYRQAPGKERELVAGITFRGGSTYYADSVKGRFTISRDNAKNTVYLQMNSLKPEDTAVYYCAAVPRVNLSRYVYFWYDYWGQGTQVTVSS
3. QVQLVESGGGLVQAGGRLRLSCAASGRIFYYNAMGWYRQAPGKERELVATITGSGGSTYYADSVKGRFTISRDIAKNTVYLQMNSLKPEDTAVYYCAKRIYRYQYRPENYWGQGTQVTVSS
4. QVQLVESGGGLVQAGGSLRLSCAASGSIFDPNAMGWYRQAPGKERELVAAINSGGSTDYADSVKGRFTISRDNAKNTVYLQMNSLKPEDTAVYYCNAEYGYSGVGDDYWGQGTQVTVSS

1: low polyreactivity; 2: high polyreactivity; 3: low polyreactivity; 4: low polyreactivity

---

Test: yeast display, Sf9 membrane polyspecificity reagent, FACS + sequencing; frameworks hold sequencing errors
ENDPOINT: polyreactivity (PSR sort gate)

1. QVQLVESVGGLVQAGGSLRLICAASGSIFDLNAMGWYRQAPGKEREFVAAISSGGGTYYADSVKGRFTISRDNAKNTVYLQKNSLKPEDTAVYYCAFELPELYYYFAYEYWGQGTQVTVSS: high polyreactivity
2. QDQLVESGGGLVQAGGSLRLSCAASGSIFGSYAMGWYRQAPGKEMELVAAISYSGASTYYADSVKGRFTISRDNAKNTVYLQMNSLKPEDTAVYYCNKDPRWRRFNYWGQGTQVTVSS: high polyreactivity

---

Experiment: yeast display, Sf9 membrane polyspecificity reagent, FACS + sequencing; frameworks hold sequencing errors
ENDPOINT: polyreactivity (PSR sort gate)

Example sequences with recorded polyreactivity (PSR sort gate):
1. QVQLVESGGGLVQAGGSLRLSCAASGITLYKYAMGWYRQAPGKERELVASISRSGGSTYYADSVKGRFTISRDNAKNTVYLQMNSLKPEDTAVYYCNARAKSYRFGYWGQGTQVTVSS: high polyreactivity
2. QVQLVESGVGLVQAGGSLRLSCAASGRTFRANAMGWYRQAPGKERELVAAITWDGGSTYYADSVKGRFTISRDNAKNTVYLLMYSLKPEDTAVYYCNTYPYLWGQGTQVTLSS: low polyreactivity
3. QDQLVDSGGGLLQAGGSLRLSCAASGSTFHPYAMGWYRQAPGKERELVAAITFSGGSTYADSVKGRFTISRDNAKNTVYIQMNSLKPEDTAVYYCAAEWWYWRGWRDYWGQGTQVTVSS: low polyreactivity
4. QVQLVESGGGLVQAGGSLRLSCAASGGILSDYAMGWYRQAPGKERELVAAITISGGRTNYADSVKGRFTFSRDNAKNTVYLQMNSLTPEDTAVYYCYKLPWEYDYWGQGTQVTVSS: low polyreactivity
5. QVQLVESGGGLVQAGGSLRLSCAASGRTLRLYVMGWYRQAPGKERELVAAISRSGGRTYYADSVKGRFTISRDNATNTVYLQMNSLKPEDTAVYYCAADSGRYGYDYWGQGTLVTVSS: high polyreactivity

Would you kindly look at the next entry?
So what's the measured polyreactivity (PSR sort gate) for this one? QVQLVESGGGLVQAGGSLRLSCAASGFTFPYYAMGWYSQAPGKERELVAAINRSGGITYYADSVRGRFTISRDNAKNTVYLQMKSLKPEDTAVYYCAAPSFGYRTWSVFGSGHDYWGQGTQVTVSS
high polyreactivity

---

Assay: yeast display, Sf9 membrane polyspecificity reagent, FACS + sequencing; frameworks hold sequencing errors
ENDPOINT: polyreactivity (PSR sort gate)

Example sequences with recorded polyreactivity (PSR sort gate):
1. QGQLVESGGGLVQAGGSLRLSCAASGRTFYVNAMGWYRQAPGKERELVAGISFSDGSTYYADSVKGRFTISRDNAKNSVYLQMNSLKPEDTAVYYCATVGAFDIYYGYGYWVQGTQVTVSS: low polyreactivity
2. QVQLVESGGGLVQAGGSLRLSCAASGSIFAYAMGWYRQAPGKERELVAGISSSGGRTYYADSVKGRFTISRDNAKNTVYLQMISLKPEDTAVYYCAARYPNVYQSETYFYWGQGTQVNVSS: high polyreactivity
3. QVQLVESGGGLVQAGGSLRLSCAASGSIFGFYAMGWYRQAPGKERELVAAIRYTGGSTYYADSVKGRFTISRDNAKNTVYLQMNSLKPEDTAVYYCNARTFRRYVSYSRTYVGYDYWGQGTQVTVSS: high polyreactivity
4. QVQLVESGGGLLKEGGSLRLICAASGRIFVGYDMGWYRQEPGKERELVAAISSDGGSTYYSDSVKGRFTISRDNAKNTVYLQMNSVKPEDTAFYYCAADDFSTVEYDYWGQGTQVNVSS: low polyreactivity
5. QVQLVESGAGLVHAGGSLRLSCAASGSIFEGYAMGWYRQAPGKERELVARITSDDDSTYYADSVKGRFTNSRDTAKNTVYLQMYSLKPEDTAVFYCNADYYWTTLAMDSWGQGTQVTVSS: low polyreactivity

Need polyreactivity (PSR sort gate) for each of these sequences.
1. QVQLVESGGGLVQAGGSLRLSCAASGRIVRPNAMGWYRQAPGKERELVAAIRSTVGSTFYADSVKGRFTISRDNAKNTVYLEMISLKPEDTAVYDCAAGTSRQFFYWGQGTQVTVAS
2. QVQLVESGGGLVQAGGSLRLSCAASGYTLDGYAMGWYRQAPGKEREFVAAIPFRGGGTYYADSVKGRFTISRDNAKNTDYLQMNSLKPEDTAVYYCNADTYDPFPWGSDYWGQGTQVTVSS
3. QVQLQESGGGLVRAGGSLRLSCAASGYISTSIAMGWYRQAPGKERELVASFGGGAITNYADSVKGFTISRDNGKNTVYLQMNCLKPEDTAVYYFAVYHGDRGYYSYWGQGTQVTVSS

1. low polyreactivity
2. high polyreactivity
3. low polyreactivity

Need polyreactivity (PSR sort gate) for each of these sequences.
1. QVQLVESGGGLVQAGGSLRLICAASGSIRYYAMGWYTQAPGKEREFVAAISRRGSSTNYADSVKGRFTISRDNAKNTVYLQMNSLNPEDTAVYNCAAAARAGLKRYYYWGQGTQVTVSS
2. QVQLVESGGGLVQAGGSLRLSSAATGITFSSYAMGSYRQAPGKERELVAAISTRGGSTYYADSVKGRFTISRDNAKNTVYLQMNSLKPEDTAVYYCATGGRGGRRYEYWGQGTQVTVSS

1: high polyreactivity; 2: low polyreactivity
